# target system: BTK (Homo sapiens, UniProt Q06187)
# Construct: purchased Signalchem B10-10H
# Sequence (Q06187 whole entry): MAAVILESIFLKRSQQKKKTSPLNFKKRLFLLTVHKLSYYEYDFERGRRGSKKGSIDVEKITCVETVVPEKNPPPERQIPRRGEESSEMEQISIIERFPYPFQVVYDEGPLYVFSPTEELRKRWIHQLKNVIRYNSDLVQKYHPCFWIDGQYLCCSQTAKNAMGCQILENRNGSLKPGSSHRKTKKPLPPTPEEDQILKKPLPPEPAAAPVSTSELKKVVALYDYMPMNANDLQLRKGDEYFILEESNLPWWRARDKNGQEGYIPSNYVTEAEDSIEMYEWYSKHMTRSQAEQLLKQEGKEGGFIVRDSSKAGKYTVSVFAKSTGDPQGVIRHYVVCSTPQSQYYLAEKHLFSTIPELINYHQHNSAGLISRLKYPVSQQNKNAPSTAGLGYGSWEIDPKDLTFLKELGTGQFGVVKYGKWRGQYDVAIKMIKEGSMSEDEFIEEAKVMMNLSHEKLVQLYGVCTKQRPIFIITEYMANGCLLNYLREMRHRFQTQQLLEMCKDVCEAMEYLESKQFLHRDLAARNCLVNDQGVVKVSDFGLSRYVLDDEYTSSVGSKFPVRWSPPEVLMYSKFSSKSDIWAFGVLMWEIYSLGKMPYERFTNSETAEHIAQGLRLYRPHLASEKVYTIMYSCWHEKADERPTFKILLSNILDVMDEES
# method summary: Inhibitory activity against BTK, ADP-Glo Kinase system (Promega)
# Type: biochemical
# test settings: 1mM ATP; read-out: BTK IC50(nM) 1mM ATP
As shown below, each of these molecules has a reported IC50 value.
value kind: IC50

molecule | target system | value kind | reported value
C=CC(=O)N1C[C@@H](Oc2nc(Nc3ncc(C)s3)cc3c2ccn3CCC)C[C@@H]1C [Example 187] | BTK (Homo sapiens, UniProt Q06187) | IC50 | ≤ 20 nM
C=CC(=O)N1CC(C)(Oc2nc(Nc3ncc(C)s3)cc3c2ccn3C)C1 [Example 166] | BTK (Homo sapiens, UniProt Q06187) | IC50 | ≤ 20 nM
C=CC(=O)N1C[C@@H](Oc2nc(Nc3ncc(C)s3)cc3c2ccn3CC2CC2)C[C@@H]1C [Example 180] | BTK (Homo sapiens, UniProt Q06187) | IC50 | ≤ 20 nM
C=CC(=O)N1C2C=C(c3nc(Nc4ncc(C)s4)cc4c3ccn4C(C)C)CC1CCC2 (stereo not drawn) [Example 37] | BTK (Homo sapiens, UniProt Q06187) | IC50 | ≤ 20 nM
C=CC(=O)N1C[C@H](F)[C@H](Oc2nc(Nc3cc[nH]n3)cc3c2ccn3CC(C)C)C1 [Example 195] | BTK (Homo sapiens, UniProt Q06187) | IC50 | 20 to 100 nM
C=CC(=O)N1CC[C@H](Oc2nc(Nc3ncc(C)s3)cc3c2ccn3CC2CCCCC2)C1 [Example 129] | BTK (Homo sapiens, UniProt Q06187) | IC50 | ≤ 20 nM
C=CC(=O)N1CC=C(c2nc(Nc3cc(C(F)(F)F)ccn3)cc3c2ccn3C(C)C)CC1 [Example 48] | BTK (Homo sapiens, UniProt Q06187) | IC50 | 20 to 100 nM
C=CC(=O)N1CC[C@H](Oc2nc(Nc3ncc(C)s3)cc3c2ccn3CCF)C1 [Example 188] | BTK (Homo sapiens, UniProt Q06187) | IC50 | ≤ 20 nM
C=CC(=O)N1C[C@H](F)[C@H](Oc2nc(Nc3ncc(C)s3)cc3c2ccn3CC2CCCC2)C1 [Example 132] | BTK (Homo sapiens, UniProt Q06187) | IC50 | ≤ 20 nM
C=CC(=O)N1CCCC12CC(Oc1nc(Nc3ncc(C)s3)cc3c1ccn3CC(C)C)C2 (stereo not drawn) [Example 200] | BTK (Homo sapiens, UniProt Q06187) | IC50 | 20 to 100 nM
C=CC(=O)N1CC(Oc2nc(Nc3ncc(C)s3)cc3c2ccn3C2CCCC2)C1 [Example 142] | BTK (Homo sapiens, UniProt Q06187) | IC50 | ≤ 20 nM
C=CC(=O)N1CC[C@H](Oc2nc(Nc3cc(C(F)(F)F)ncn3)cc3c2ccn3C(C)C)C1 [Example 95] | BTK (Homo sapiens, UniProt Q06187) | IC50 | ≤ 20 nM

All values here come from patent EP4707277A1.
